- System: Dd2 (multidrug-resistant) strain of Plasmodium falciparum
- measurement-notes: Antiplasmodial screen, parasite lactate dehydrogenase (pLDH) assay, Dd2 strain
- Type: cell-based
- recorded-conditions: P. falciparum Dd2, pLDH assay
- Description: The 3D7 (MRA-102), and Dd2 (MRA-615) strains were kindly donated by BEI-Resources (MR4, Manassas, VA, USA), and maintained in continuous culture, with back up stored in liquid nitrogen. The laboratory strains of P. falciparum were grown and maintained in culture using the method of Trager and Jensen with some modifications. […] The cultures were monitored and parasitemia assessed using both fluorescence (acridine orange) and normal light (Giemsa stain) microscopes. […]
quantity-kind: Activity against Dd2 IC50 (mg/L)
All answers are understood in mg/L, so give the number only.

compound | Activity against Dd2 IC50 / mg/L
CC[C@H](CCC(C)C1CCC2C3CC=C4C[C@@H](O[C@@H]5O[C@H](CO)[C@@H](O)[C@H](O)[C@H]5O)CC[C@]4(C)C3CC[C@]12C)C(C)C (stereo partly shown) [DES5] | 5.34

Consider the additional compound presented here.
Incoming: Name the recorded Activity against Dd2 IC50 of O=c1c(O)c(-c2ccc(O)c(O)c2)oc2cc(O)cc(O)c12 [DES3, Quercetin] , assay system Dd2 (multidrug-resistant) strain of Plasmodium falciparum.
Outgoing: 5.91
